API: label(entry) gives 1 if the entry's melting point is strictly smaller than 100 °C; on equality or larger values it gives -1.

molecule=O=C(O)c1c(Br)cc(Br)c(O)c1Br qualitative_label=-1
molecule=COC(=O)c1ccc(N2N=N2)cc1 qualitative_label=1
molecule=COc1ccc2ccc(=O)oc2c1CC=C(C)C qualitative_label=1
molecule="CC(=O)NC(Cc1ccc2c(c1)OCO2)C(=O)O (stereo not given)" qualitative_label=1
molecule=COc1ccc(CCC(C)=O)cc1 qualitative_label=1
molecule=COc1ccc(NN=c2c(C)nc3ccccc3[nH]c2=O)cc1 qualitative_label=-1

INPUT: Decide: melting point of COc1ccc(O)c(C=O)c1 strictly below 100 °C?
OUTPUT: 1

INPUT: Decide: melting point of CC(=O)Nc1ccc(CC(=O)O)cc1 strictly below 100 °C?
OUTPUT: -1

INPUT: Decide: melting point of CCCCCCCCCCCCCCCCOc1ccc(N)cc1 strictly below 100 °C?
OUTPUT: 1
